test: UV absorption spectrum (absorption maximum and extinction E); format: physicochemical; design: unit not given beside the values; conditions: UV (water), at absorption maximum
Field: extinction E. Provide a value for each of the compounds that follow.
Number only, please.

Query: # query: extinction E of entry CC1=CC(=C(C#N)C#N)C=C(C)N1CCOCCOP(=O)([O-])O.[Na+]
Reply: 979

Query: # query: extinction E of entry CC1=CC(=C(C#N)C#N)C=C(C)N1CCOCC[n+]1ccccc1
Reply: 1149

Query: # query: extinction E of entry CC1=CC(=C(C#N)C#N)C=C(C)N1CCOS(=O)(=O)[O-].[Na+]
Reply: 1261

Query: # query: extinction E of entry CC1=CC(=C(C#N)C#N)C=C(C)N1c1cccc(OCCCS(=O)(=O)[O-])c1.[Na+]
Reply: 1150
